Quick reference for MIC among some compounds
Tested on: Micrococcus luteus
Assay: Antibacterial activity against Micrococcus luteus MTCC 106 measured after 24 hrs by NCCL protocol based broth dilution method
Type: functional
Settings: MTCC 106, 24 h
Write down the numeric answer in µg/mL and omit the unit.

{"Compound": "CC1(C)O[C@H]2O[C@@H]3COB(c4ccccc4F)O[C@@H]3[C@H]2O1", "Quantity Name": "MIC", "Unit Annotation": "µg/mL", "Measurement": 250}
{"Compound": "CC1(C)O[C@H]2O[C@@H]3COB(c4ccc(/C=N/c5ccc(Cl)cc5)cc4)O[C@@H]3[C@H]2O1", "Quantity Name": "MIC", "Unit Annotation": "µg/mL", "Measurement": 125}

Problem: I am curious: what MIC value has been reported for CC1(C)O[C@H]2O[C@@H]3COB(c4ccc(/C=N/c5ccccc5)cc4)O[C@@H]3[C@H]2O1 ?
Solution: 250

Problem: Can you share its MIC? I mean this compound: CC1(C)O[C@H]2O[C@@H]3COC(c4ccc(/C=N\c5ccc(F)cc5)cc4)O[C@@H]3[C@H]2O1 (stereo partly drawn)
Solution: 500

Problem: Name the reported MIC value associated with the compound CC1(C)O[C@H]2O[C@@H]3COB(c4ccc(/C=N/c5ccc(F)cc5)cc4)O[C@@H]3[C@H]2O1
Solution: 62.5

Problem: Look up MIC: CC1(C)O[C@H]2O[C@@H]3COB(c4cccc(N)c4)O[C@@H]3[C@H]2O1
Solution: 250

Problem: Item Cc1ccc(/N=C/c2cccc(B3OC[C@H]4O[C@@H]5OC(C)(C)O[C@@H]5[C@H]4O3)c2)cc1 has what recorded MIC?
Solution: 250

Problem: Any idea what its MIC is? The compound is COc1ccc(/N=C/c2ccc(B3OC[C@H]4O[C@@H]5OC(C)(C)O[C@@H]5[C@H]4O3)cc2)cc1
Solution: 250

====

Tested on: Micrococcus luteus
Test: Antibacterial activity against Micrococcus luteus MTCC 106 measured after 24 hrs by NCCL protocol based broth dilution method
Assay type: functional
Conditions: MTCC 106, 24 h
Quantity Name: MIC
Returns: string containing the number followed by the unit.

Answered examples (3):
{"Smiles Input": "COc1ccc(/N=C/c2cccc(B3OC[C@H]4O[C@@H]5OC(C)(C)O[C@@H]5[C@H]4O3)c2)cc1", "MIC": "250 µg/mL"}
{"Smiles Input": "O=[N+]([O-])c1ccc(O)c(/C=N/c2cccc(B(O)O)c2)c1", "MIC": "250 µg/mL"}
{"Smiles Input": "CC1(C)O[C@H]2O[C@@H]3COB(c4cccc(/N=C/c5ccc6ccccc6c5O)c4)O[C@@H]3[C@H]2O1", "MIC": "62.5 µg/mL"}

Problem: Endpoint output: MIC of CC1(C)O[C@H]2O[C@@H]3COB(c4cccc(/C=N/c5ccc(Br)cc5)c4)O[C@@H]3[C@H]2O1 . Value?
Solution: 125 µg/mL

Problem: Param item = Cc1ccccc1B1OC[C@H]2O[C@@H]3OC(C)(C)O[C@@H]3[C@H]2O1 ; retrieve measured MIC.
Solution: 250 µg/mL

====

Below: a set of entries, each annotated with reported zone of inhibition at 100 µg/disc.
System: Klebsiella pneumoniae
Assay: Antibacterial activity against Klebsiella pneumoniae MTCC 3384 assessed as zone of inhibition at 100 ug/well measured after 24 hrs by agar well diffusion method
Format: functional
Settings: MTCC 3384, 24 h, read-out: DIZ
The figure you give is taken to be in mm; do not add the unit.

Sample records with zone of inhibition at 100 µg/disc:
{"Compound": "CC1(C)O[C@H]2O[C@@H]3COB(c4cccc(C=O)c4)O[C@@H]3[C@H]2O1", "Subject Of Test": "Klebsiella pneumoniae", "Unit Annotation": "mm", "zone of inhibition at 100 µg/disc": 19}
{"Compound": "CC1(C)O[C@H]2O[C@@H]3COB(c4ccccc4C=O)O[C@@H]3[C@H]2O1", "Subject Of Test": "Klebsiella pneumoniae", "Unit Annotation": "mm", "zone of inhibition at 100 µg/disc": 27}
{"Compound": "CC1(C)O[C@H]2O[C@@H]3COB(c4cccc(/N=C/c5cc(Br)ccc5O)c4)O[C@@H]3[C@H]2O1", "Subject Of Test": "Klebsiella pneumoniae", "Unit Annotation": "mm", "zone of inhibition at 100 µg/disc": 21}
{"Compound": "COc1ccc(/N=C/c2ccc(B3OC[C@H]4O[C@@H]5OC(C)(C)O[C@@H]5[C@H]4O3)cc2)cc1", "Subject Of Test": "Klebsiella pneumoniae", "Unit Annotation": "mm", "zone of inhibition at 100 µg/disc": 18}
{"Compound": "CC1(C)O[C@H]2O[C@@H]3COB(c4cccc(/N=C/c5cc([N+](=O)[O-])ccc5O)c4)O[C@@H]3[C@H]2O1", "Subject Of Test": "Klebsiella pneumoniae", "Unit Annotation": "mm", "zone of inhibition at 100 µg/disc": 18}

Proceed to the following item.
Problem: # value lookup — system Klebsiella pneumoniae, readout zone of inhibition at 100 µg/disc, item CC1(C)O[C@H]2O[C@@H]3COC(c4cccc(/C=N/c5ccc(F)cc5)c4)O[C@@H]3[C@H]2O1 (stereo partly specified)
Solution: 0

====

Tested on: Salmonella typhi
Experiment: Antibacterial activity against Salmonella typhi assessed as zone of inhibition at 100 ug/well measured after 24 hrs by agar well diffusion method
Type: functional, Salmonella enterica subsp. enterica serovar Typhi
Details: Salmonella enterica, read-out: DIZ
Quick rule: zone of inhibition at 100 µg/disc of at least 20 mm means YES, below that means NO.

Problem: Has CC1(C)O[C@H]2O[C@@H]3COC(c4cccc(/C=N/c5ccc(F)cc5)c4)O[C@@H]3[C@H]2O1 (stereo not given in full) a recorded zone of inhibition at 100 µg/disc greater than or equal to 20 mm?
Solution: NO

Problem: Decide: zone of inhibition at 100 µg/disc of CC1(C)O[C@H]2O[C@@H]3COB(c4cccc(/C=N/c5ccccc5)c4)O[C@@H]3[C@H]2O1 >= 20 mm?
Solution: YES

Problem: Determine whether measured zone of inhibition at 100 µg/disc meets or exceeds 20 mm for CC1(C)O[C@H]2O[C@@H]3COB(c4ccc(/C=N/c5ccc(Cl)cc5)cc4)O[C@@H]3[C@H]2O1
Solution: YES

Problem: Determine whether this molecule has zone of inhibition at 100 µg/disc no lower than 20 mm: OB(O)c1ccc(/C=N/c2ccc(F)cc2)cc1
Solution: NO

Problem: Hi, just wondering whether Cc1ccccc1B1OC[C@H]2O[C@@H]3OC(C)(C)O[C@@H]3[C@H]2O1 shows zone of inhibition at 100 µg/disc of 20 mm or higher.
Solution: NO

====

Below is a list of entries, each paired with its recorded zone of inhibition at 100 µg/disc value.
Test system: Salmonella typhi
Experiment: Antibacterial activity against Salmonella typhi assessed as zone of inhibition at 100 ug/well measured after 24 hrs by agar well diffusion method
Type: functional, Salmonella enterica subsp. enterica serovar Typhi
Conditions: Salmonella enterica, read-out: DIZ

Some molecules with recorded zone of inhibition at 100 µg/disc:
{"Molecule": "CC1(C)O[C@H]2O[C@@H]3COB(c4cccc(/C=N/c5ccc(Cl)cc5)c4)O[C@@H]3[C@H]2O1", "Quantity Name": "zone of inhibition at 100 µg/disc", "Measurement": "25 mm"}
{"Molecule": "CN[C@@H]1[C@H](O[C@H]2[C@H](O[C@H]3[C@H](O)[C@@H](O)[C@H](N=C(N)N)[C@@H](O)[C@@H]3N=C(N)N)O[C@@H](C)[C@]2(O)C=O)O[C@@H](CO)[C@H](O)[C@H]1O.CN[C@@H]1[C@H](O[C@H]2[C@H](O[C@H]3[C@H](O)[C@@H](O)[C@H](N=C(N)N)[C@@H](O)[C@@H]3N=C(N)N)O[C@@H](C)[C@]2(O)C=O)O[C@@H](CO)[C@H](O)[C@H]1O.O=S(=O)(O)O.O=S(=O)(O)O.O=S(=O)(O)O [STREPTOMYCIN SULFATE]", "Quantity Name": "zone of inhibition at 100 µg/disc", "Measurement": "25 mm"}

Problem: Returns the measured zone of inhibition at 100 µg/disc for the input molecule. Input: Cc1ccc(/N=C/c2ccc(B3OC[C@H]4O[C@@H]5OC(C)(C)O[C@@H]5[C@H]4O3)cc2)cc1
Solution: 18 mm

Problem: Can you share its zone of inhibition at 100 µg/disc? I mean this molecule: CC(C)c1ccc(/N=C/c2cccc(B3OC[C@H]4O[C@@H]5OC(C)(C)O[C@@H]5[C@H]4O3)c2)cc1
Solution: 23 mm

Problem: Dear colleague, I am looking for the recorded zone of inhibition at 100 µg/disc of the following molecule: CC1(C)O[C@H]2O[C@@H]3COB(c4cccc(N)c4)O[C@@H]3[C@H]2O1
Solution: 11 mm
